test system: HL-60; experiment: Induction of apoptosis in human HL60 cells assessed as increase in cytochrome c release into cytosol at 3 uM incubated for 8 hrs by immunoblot method; format: functional, cell-based
The source made the active and inactive calls. The calls are words filed in the database; no cut-off is given here.
MEASURED PARAMETER: Activity

INSERT INTO assay_data (item_smiles, measured_parameter, endpoint_value) VALUES
  ('C=C(Br)C(=O)Nc1cccc(-c2cn3nc(-c4ccc(OC)c(OC)c4)sc3n2)c1', 'Activity', 'Active'),
  ('C=C(Br)C(=O)Nc1cccc(-c2cn3nc(-c4cccs4)sc3n2)c1', 'Activity', 'Active'),
  ('C=C(Br)C(=O)Nc1cccc(-c2cn3c(-c4ccc(OC)cc4)csc3n2)c1', 'Activity', 'Active'),
  ('C=C(Br)C(=O)Nc1cccc(-c2cn3nc(-c4ccc(F)cc4)sc3n2)c1', 'Activity', 'Active');

###

system: HL-60; assay: Induction of apoptosis in human HL60 cells assessed as cleavage of pro-caspase-9 at 3 uM incubated for 8 hrs by immunoblot method; format: functional, cell-based
Active and inactive are the calls of the source. The rule behind the calls is not given here.
MEASURED PARAMETER: Activity

INSERT INTO measurements (item_smiles, measured_parameter, endpoint_value) VALUES
  ('C=C(Br)C(=O)Nc1cccc(-c2cn3nc(-c4ccc(F)cc4)sc3n2)c1', 'Activity', 'Active'),
  ('C=C(Br)C(=O)Nc1cccc(-c2cn3nc(-c4ccc(OC)c(OC)c4)sc3n2)c1', 'Activity', 'Active'),
  ('C=C(Br)C(=O)Nc1cccc(-c2cn3nc(-c4cccs4)sc3n2)c1', 'Activity', 'Active'),
  ('C=C(Br)C(=O)Nc1cccc(-c2cn3c(-c4ccc(OC)cc4)csc3n2)c1', 'Activity', 'Active');
